Exercise: for every item that follows, state its recorded pIC50.
Test system: PLC/PRF/5 KSR2 OE (PLC cells overexpressing KSR2)
Test: Cell IC50 assay (CCK8 cell viability), PLC/PRF/5 KSR2 OE
Type: cell-based
Settings: Homo sapiens, PLC-PRF-5; hepatoma cells, 72 h incubation, CCK8; read-out: IC50 value of cell viability, PLC/PRF/5 KSR2 OE (PLC cells overexpressing KSR2)
Answers are plain numbers, as −log10 of the molar value.

Consider the following items and state reported pIC50 for each.
1. CN1CCN(C2CCN(CCCNC(=O)c3nn(C)c4c3COc3c(F)cccc3-4)CC2)CC1 [Compound 73]
2. Cn1nc(C(=O)NCCCN2CCN(c3ccccc3Cl)CC2)c2c1-c1ccccc1SC2 [Compound 22]
3. CN1CCN(C2CN(C3CC(CNC(=O)c4nn(C)c5c4CSc4cc(Cl)ccc4-5)C3)C2)CC1 (centres unmarked) [Compound 110]
4. CN1CCN(C2CCN(CCCNC(=O)c3n[nH]c4c3CSc3ccccc3-4)CC2)CC1 [Compound 83]

1. 4.92
2. 4.82
3. 5.40
4. 4.74

Memo: CN(CCCN1CCN(C2CCCCC2)CC1)C(=O)c1nn(C)c2c1CSc1ccccc1-2 [Compound 12] , reported pIC50: 4.25

---

System: PLC/PRF/5 KSR2 OE (PLC cells overexpressing KSR2)
Assay: Cell IC50 assay (CCK8 cell viability), PLC/PRF/5 KSR2 OE
Assay type: cell-based
Conditions: Homo sapiens, PLC-PRF-5; hepatoma cells, 72 h incubation, CCK8; read-out: IC50 value of cell viability, PLC/PRF/5 KSR2 OE (PLC cells overexpressing KSR2)
Entries whose IC50 is below 30 µM take yes; entries at or above 30 µM take no.

Consider the worked cases shown below.
compound="Cn1nc(C(=O)NCCCN2CCC(N3CCCCC3)C(F)(F)C2)c2c1-c1ccccc1SC2 (centres unmarked) [Compound 36]" answerlabel=no
compound="Cn1nc(C(=O)NCCCN2CCN(c3ncccn3)CC2)c2c1-c1ccccc1SC2 [Compound 28]" answerlabel=yes
compound="Cn1nc(C(=O)NCCCN2CCN(C3CC4(CCC4)C3)CC2)c2c1-c1ccccc1SC2 [Compound 4]" answerlabel=yes

Then this compound:
Confirm or reject: IC50 of CN1CC2CCC(C1)N2C1CCN(CCCNC(=O)c2nn(C)c3c2CSc2ccccc2-3)CC1 [Compound 74] lies strictly below 30 µM
yes

---

Test system: PLC/PRF/5 KSR2 OE (PLC cells overexpressing KSR2)
Assay: Cell IC50 assay (CCK8 cell viability), PLC/PRF/5 KSR2 OE
Format: cell-based
Conditions: Homo sapiens, PLC-PRF-5; hepatoma cells, 72 h incubation, CCK8; read-out: IC50 value of cell viability, PLC/PRF/5 KSR2 OE (PLC cells overexpressing KSR2)
Exercise: for every item that follows, state its recorded IC50.
One number for each entry, in µM.

molecule="CN(C)CC1CCN(CCCNC(=O)c2nn(C)c3c2CSc2ccccc2-3)C1 (stereo not shown)" system="PLC/PRF/5 KSR2 OE (PLC cells overexpressing KSR2)" units=µM readoutnumber=92
molecule=CN(C)C1CCN(CCCNC(=O)c2nn(C)c3c2CSc2ccccc2-3)CC1 system="PLC/PRF/5 KSR2 OE (PLC cells overexpressing KSR2)" units=µM readoutnumber=5
molecule=CC(=O)N1CCN(C2CCN(CCCNC(=O)c3nn(C)c4c3CSc3ccccc3-4)CC2)CC1 system="PLC/PRF/5 KSR2 OE (PLC cells overexpressing KSR2)" units=µM readoutnumber=11
molecule="CCN1CCN(C2CN(C3CC(CNC(=O)c4nn(C)c5c4CSc4cc(Cl)ccc4-5)C3)C2)CC1 (stereo not shown)" system="PLC/PRF/5 KSR2 OE (PLC cells overexpressing KSR2)" units=µM readoutnumber=6

Consider the following items and state reported IC50 for each.
1. CN1CCN(C2CCN(CCCNC(=O)c3nn(C)c4c3COc3ccc(F)cc3-4)CC2)CC1
2. Cn1nc(C(=O)NCCCN2CCC(N3CCC3)CC2)c2c1-c1ccccc1SC2
3. CN1CCN(C2CCN(CCCNC(=O)c3nn(C)c4c3COc3cc(C(F)(F)F)ccc3-4)CC2)CC1
4. Cc1ccc2c(c1)OCc1c-2nn(C)c1C(=O)NCCCN1CCC(N2CCN(C)CC2)CC1
5. Cn1nc(C(=O)N2CC(CN3CCC(N4CCCC4)CC3)C2)c2c1-c1ccccc1SC2
6. Cn1nc(C(=O)NCCCN2CCC(N3CCN(C4CC4)CC3)CC2)c2c1-c1ccccc1SC2
7. CN1CCN(C2CN(CCCNC(=O)c3nn(C)c4c3COc3cc(Cl)ccc3-4)C2)CC1
8. CCN1CCN(C2CCN(CCCNC(=O)c3n[nH]c4c3COc3cc(Cl)c(C#N)cc3-4)CC2)CC1

[18, 2, 2, 18, 7, 12, 6, 5]

Consider the following items and state reported IC50 for each.
1. Cn1nc(C(=O)NCCCN2CCC(N)CC2)c2c1-c1ccccc1SC2
2. CN1CCN(C2CCN(CCCNC(=O)c3nn(C)c4c3COc3ccccc3-4)CC2)CC1
3. Cn1nc(C(=O)NCCCN2CCN(c3ccc(Cl)cc3)CC2)c2c1-c1ccccc1SC2
4. Cn1nc(C(=O)NCCCN2CCC(N3CCN(CC4CC4)CC3)CC2)c2c1-c1ccccc1SC2

1: 4; 2: 7; 3: 20; 4: 5

---

System: PLC/PRF/5 KSR2 OE (PLC cells overexpressing KSR2)
Test: Cell IC50 assay (CCK8 cell viability), PLC/PRF/5 KSR2 OE
Format: cell-based
Conditions: Homo sapiens, PLC-PRF-5; hepatoma cells, 72 h incubation, CCK8; read-out: IC50 value of cell viability, PLC/PRF/5 KSR2 OE (PLC cells overexpressing KSR2)
observable: log10(IC50) (log10 of the value in µM)
# log10 transformed; quantity=IC50; unit=µM

Example entries begin here.
compound="CN1CCN(C2CCN(CCCNC(=O)c3c4c(nn3C)-c3ccc(Cl)cc3OC4)CC2)CC1 [Compound 117]" observable=log10(IC50) readoutnumber=0.78
compound="CN1CCN(C2CCN(CCCNC(=O)c3c4c(nn3C)-c3ccc(-c5cn[nH]c5)cc3OC4)CC2)CC1 [Compound 123]" observable=log10(IC50) readoutnumber=2.06
compound="CC(C)N1CCN(C2CCN(CCCNC(=O)c3nn(C)c4c3CSc3ccccc3-4)CC2)CC1 [Compound 60]" observable=log10(IC50) readoutnumber=0.30
compound="CN1CCN(C2CN(CCCNC(=O)c3nn(C)c4c3COc3cc(Cl)c(C#N)cc3-4)C2)CC1 [Compound 119]" observable=log10(IC50) readoutnumber=0.70
compound="Cn1nc(C(=O)NCC(F)(F)CN2CCC(N3CCC(F)(F)CC3)CC2)c2c1-c1ccccc1SC2 [Compound 37]" observable=log10(IC50) readoutnumber=1.28
compound="CN1CCN(C2CCN(CCCNC(=O)c3nn(C)c4c3COc3cc(C#N)ccc3-4)CC2)CC1 [Compound 94]" observable=log10(IC50) readoutnumber=0.85

Consider the following items and state reported log10(IC50) for each.
1. CN1CCN(C2CCN(CCCNC(=O)c3nn(C)c4c3COc3cc(C5CC5)ccc3-4)CC2)CC1 [Compound 93]
2. Cn1nc(C(=O)NCCCN2CC(N3CCOCC3)C2)c2c1-c1ccc(Cl)cc1OC2 [Compound 98]
3. Cn1nc(C(=O)NCCCN2CCC(N3CCN(CCC#N)CC3)CC2)c2c1-c1ccccc1SC2 [Compound 79]
4. Cn1nc(C(=O)NCCCN2CC(N3CC[C@H](O)C3)C2)c2c1-c1ccc(Cl)cc1OC2 [Compound 104]

0.48
1.26
1.76
1.48

Consider the following items and state reported log10(IC50) for each.
1. Cn1nc(C(=O)NCCCN2CCC(N3CCN(S(C)(=O)=O)CC3)CC2)c2c1-c1ccccc1SC2 [Compound 56]
2. Cn1nc(C(=O)NCCCN2CCC(N3CCC(F)(F)C3)CC2)c2c1-c1ccccc1SC2 [Compound 43]

1.70
1.61

---

Test system: PLC/PRF/5 KSR2 OE (PLC cells overexpressing KSR2)
Test: Cell IC50 assay (CCK8 cell viability), PLC/PRF/5 KSR2 OE
Assay type: cell-based
Settings: Homo sapiens, PLC-PRF-5; hepatoma cells, 72 h incubation, CCK8; read-out: IC50 value of cell viability, PLC/PRF/5 KSR2 OE (PLC cells overexpressing KSR2)
Entries whose IC50 is below 9 µM take yes; entries at or above 9 µM take no.

Consider the worked cases shown below.
compound=Cc1ccc2c(c1)OCc1c(C(=O)NCCCN3CC(N4CCN(C)CC4)C3)nn(C)c1-2 system="PLC/PRF/5 KSR2 OE (PLC cells overexpressing KSR2)" answerlabel=no
compound="CCN1CCN(C2CN(C3CC(CNC(=O)c4nn(C)c5c4COc4cc(Cl)ccc4-5)C3)C2)CC1 (stereo not shown)" system="PLC/PRF/5 KSR2 OE (PLC cells overexpressing KSR2)" answerlabel=yes
compound=Cn1nc(C(=O)NCCCN2CCN(c3ccc(C(F)(F)F)cc3)CC2)c2c1-c1ccccc1SC2 system="PLC/PRF/5 KSR2 OE (PLC cells overexpressing KSR2)" answerlabel=no
compound=Cn1nc(C(=O)NCCCN2CCC(N3CCN(CC4COC4)CC3)CC2)c2c1-c1ccccc1SC2 system="PLC/PRF/5 KSR2 OE (PLC cells overexpressing KSR2)" answerlabel=no
compound=Cn1nc(C(=O)NCCCN2CCC(N3CCNCC3)CC2)c2c1-c1ccccc1SC2 system="PLC/PRF/5 KSR2 OE (PLC cells overexpressing KSR2)" answerlabel=yes
compound=O=C(NCCCN1CCN(C2CCCCC2)CC1)c1nn(CC2CC2)c2c1CSc1ccccc1-2 system="PLC/PRF/5 KSR2 OE (PLC cells overexpressing KSR2)" answerlabel=no
compound=CN1CCN(C2CCN(CCCNC(=O)c3nn(C)c4c3COc3cc(-c5cnn(C)c5)ccc3-4)CC2)CC1 system="PLC/PRF/5 KSR2 OE (PLC cells overexpressing KSR2)" answerlabel=yes
compound=CN1CCN(C2CN(CCCNC(=O)c3c4c(nn3C)-c3ccc(Cl)cc3OC4)C2)CC1 system="PLC/PRF/5 KSR2 OE (PLC cells overexpressing KSR2)" answerlabel=no
compound="CN(C)C1CCN(CCCNC(=O)c2nn(C)c3c2CSc2ccccc2-3)C1 (stereo not shown)" system="PLC/PRF/5 KSR2 OE (PLC cells overexpressing KSR2)" answerlabel=no
compound=CN1CCN(C2CCN(CCCNC(=O)c3nn(C)c4c3COc3cc(Br)ccc3-4)CC2)CC1 system="PLC/PRF/5 KSR2 OE (PLC cells overexpressing KSR2)" answerlabel=yes

Confirm or reject: IC50 of CCN1CCN(C2CN(C3CC(CNC(=O)c4nn(C)c5c4CSc4ccccc4-5)C3)C2)CC1 (stereo not shown) lies strictly below 9 µM
no

Confirm or reject: IC50 of "CN1CCN(C2CCN(CCCNC(=O)c3nn(C)c4c3COc3cc(Cl)ccc3-4)CC2)CC1" lies strictly below 9 µM
yes

Confirm or reject: IC50 of "CN1CCN(C2CCN(CCCNC(=O)c3nn(C)c4c3CSc3cc(Cl)ccc3-4)CC2)CC1" lies strictly below 9 µM
yes

Confirm or reject: IC50 of CCN1CCN(C2CN(C3CC(CNC(=O)c4nn(C)c5c4COc4cc(OC(F)(F)F)ccc4-5)C3)C2)CC1 (stereo not shown) lies strictly below 9 µM
yes

Confirm or reject: IC50 of "Cn1nc(C(=O)NCCCN2CCC(N3CCOCC3)CC2)c2c1-c1ccccc1SC2" lies strictly below 9 µM
no

Confirm or reject: IC50 of CC(CNC(=O)c1nn(C)c2c1CSc1ccccc1-2)CN1CCN(c2ccccc2)CC1 (stereo not shown) lies strictly below 9 µM
no

Confirm or reject: IC50 of "CN1CCCC12CN(CCCNC(=O)c1nn(C)c3c1CSc1ccccc1-3)C2" lies strictly below 9 µM
no

Confirm or reject: IC50 of "CN1CCN(C2CCN(CCCNC(=O)c3n[nH]c4c3COc3cc(C(F)(F)F)c(C#N)cc3-4)CC2)CC1" lies strictly below 9 µM
no
